- Tested on: D-283MED (Other Solid Carcinomas);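 also: after 72 h of two-drug dosing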
- assay.name: Bliss excess, mean over the matrix (fraction); higher = more synergy
reported.metric: Bliss excess
Simply state the number, no unit and no words.

Use the examples below as a reference point.
[
  {
    "compound": "O=C(c1cc(Cc2n[nH]c(=O)c3ccccc23)ccc1F)N1CCN(C(=O)C2CC2)CC1 [Olaparib] + CN(CC[C@H](CSC1=CC=CC=C1)NC2=C(C=C(C=C2)S(=O)(=O)NC(=O)C3=CC=C(C=C3)N4CCC(CC4)[C@H](C5=CC=CC=C5C6=CC=C(C=C6)Cl)O)S(=O)(=O)C(F)(F)F)CCO [AZD4320] (first compound max 10 µM, 7x7, partner max 1 µM)",
    "endpoint.value": 0.0204
  },
  {
    "compound": "CCN(CCO)CCCOc1ccc2c(Nc3cc(CC(=O)Nc4cccc(F)c4)[nH]n3)ncnc2c1 [AZD2811] + C=CCn1c(=O)c2cnc(Nc3ccc(N4CCN(C)CC4)cc3)nc2n1-c1cccc(C(C)(C)O)n1 [AZD1775] (first compound max 1 µM, partner max 1 µM)",
    "endpoint.value": 0.0452
  },
  {
    "compound": "N#Cc1cnc(Nc2cc(NC[C@H]3CNCCO3)c(C(F)(F)F)cn2)cn1 [SRA737] + O=c1[nH]cc(F)c(=O)[nH]1 [5-Fluorouracil] (first compound max 10 µM, 7x7, partner max 20 µM)",
    "endpoint.value": -0.0048
  },
  {
    "compound": "CN(CCO)CC[C@H](CSc1ccccc1)Nc1ccc(S(=O)(=O)NC(=O)c2ccc(N3CCC([C@@H](O)c4ccccc4-c4ccc(Cl)cc4)CC3)cc2)cc1S(=O)(=O)C(F)(F)F [AZD4320] + CC(=O)O[C@H]1C(=O)[C@@]2(C)[C@H]([C@H](OC(=O)c3ccccc3)[C@]3(O)C[C@H](OC(=O)[C@H](O)[C@@H](NC(=O)c4ccccc4)c4ccccc4)C(C)=C1C3(C)C)[C@]1(OC(C)=O)CO[C@@H]1C[C@@H]2O [Paclitaxel] (first compound max 1 µM, 7x7, partner max 3 µM)",
    "endpoint.value": -0.0081
  }
]

// recorded Bliss excess for CC1(C)CCC(CN2CCN(c3ccc(C(=O)NS(=O)(=O)c4ccc(NCC5CCOCC5)c([N+](=O)[O-])c4)c(Oc4cnc5[nH]ccc5c4)c3)CC2)=C(c2ccc(Cl)cc2)C1 [Venetoclax] + C=CCn1c(=O)c2cnc(Nc3ccc(N4CCN(C)CC4)cc3)nc2n1-c1cccc(C(C)(C)O)n1 [AZD1775] (first compound max 1 µM, partner max 1 µM) : 0.0257

// recorded Bliss excess for COc1nnc2ccc(N3CCC(c4ccc(OCCN5CCN(C)C(=O)[C@H]5C)cc4)CC3)nn12 [AZD5153] + CCN(CCO)CCCOc1ccc2c(Nc3cc(CC(=O)Nc4cccc(F)c4)[nH]n3)ncnc2c1 [AZD2811] (first compound max 1 µM, 7x7, partner max 1 µM) : 0.001
